The reader will find reported protein stability index values listed item by item below.
System: Saccharomyces cerevisiae
experiment: protein stability index of tFT-peptide fusion (C-terminal peptide) (PSI (0-1 scale)); higher = more stable (slower turnover)
condition.info: genetic background: das1 deletion; temperature: 30 C
measure.name: protein stability index

[[record]]
seq_string = "TIYDGEAVAKYI [PRE5 C-terminal 12 aa]"
readout_value = 0.677

[[record]]
seq_string = "RDLQSALVRQLL [CAD1 C-terminal 12 aa]"
readout_value = 0.718

[[record]]
seq_string = "FEFEFFESCYNA [PET18 C-terminal 12 aa]"
readout_value = 0.744

[[record]]
seq_string = "NIGSPLGAPKKK [MBF1 C-terminal 12 aa]"
readout_value = 0.696

[[record]]
seq_string = "DVEDVERVSKKI [CDC34 C-terminal 12 aa]"
readout_value = 0.704

[[record]]
seq_string = "RSVYDYNGSLKV [CSR1 C-terminal 12 aa]"
readout_value = 0.686

[[record]]
seq_string = "SMKYPHTAALVR [YLR111W C-terminal 12 aa]"
readout_value = 0.578

[[record]]
seq_string = "PVVFHSGPVVWK [YLR415C C-terminal 12 aa]"
readout_value = 0.72

[[record]]
seq_string = "ANKNDAISKKVE [ATG23 C-terminal 12 aa]"
readout_value = 0.69

[[record]]
seq_string = "RFIRTANKKDYL [IMP4 C-terminal 12 aa]"
readout_value = 0.671

[[record]]
seq_string = "VPLIIDSSGSAN [FTH1 C-terminal 12 aa]"
readout_value = 0.718

[[record]]
seq_string = "DWESNQAKWIYE [YNK1 C-terminal 12 aa]"
readout_value = 0.752

[[record]]
seq_string = "QSLVESPPPYVP [SNA4 C-terminal 12 aa]"
readout_value = 0.692

[[record]]
seq_string = "IFQSAISKAIRG [YBR109W-A C-terminal 12 aa]"
readout_value = 0.673

[[record]]
seq_string = "KNLADIHKIMGF [MSW1 C-terminal 12 aa]"
readout_value = 0.685

[[record]]
seq_string = "LRNKPFWENKRL [IPL1 C-terminal 12 aa]"
readout_value = 0.702

[[record]]
seq_string = "AFSDLSTLENAS [ATG42 C-terminal 12 aa]"
readout_value = 0.727

[[record]]
seq_string = "IYDWAGEYPLAV [SHM2 C-terminal 12 aa]"
readout_value = 0.707

[[record]]
seq_string = "AFTRRRFMNKSL [ARC18 C-terminal 12 aa]"
readout_value = 0.69

[[record]]
seq_string = "CLSLDFVVPRPK [SHR5 C-terminal 12 aa]"
readout_value = 0.74

[[record]]
seq_string = "SFALVFKISAEV [YAR053W C-terminal 12 aa]"
readout_value = 0.448

[[record]]
seq_string = "VHPNWSPFEVFK [GCY1 C-terminal 12 aa]"
readout_value = 0.744

[[record]]
seq_string = "PGVDVEVVVASN [RPS20 C-terminal 12 aa]"
readout_value = 0.669

[[record]]
seq_string = "GARPPKNEARII [YBL036C C-terminal 12 aa]"
readout_value = 0.694

[[record]]
seq_string = "DYWRKRGISSVY [ECM38 C-terminal 12 aa]"
readout_value = 0.687


* * *

System: Saccharomyces cerevisiae
experiment: protein stability index of tFT-peptide fusion (C-terminal peptide) (PSI (0-1 scale)); higher = more stable (slower turnover)
condition.info: genetic background: das1 deletion; temperature: 30 C
// Not met strictly below 0.4 in protein stability index; Met otherwise

[[record]]
seq_string = "VLFSVWFFLVLV"
discrete_label = "Not met"

[[record]]
seq_string = "RVCYQIAISLPI"
discrete_label = "Met"

[[record]]
seq_string = "CGCLPYIGTKLC"
discrete_label = "Met"

[[record]]
seq_string = "CFGIFWLFARLK"
discrete_label = "Not met"

[[record]]
seq_string = "SVLALLWVGCWL"
discrete_label = "Not met"

[[record]]
seq_string = "LISRGNRALFCI"
discrete_label = "Met"

[[record]]
seq_string = "LFFLPPCYWFLL"
discrete_label = "Met"

[[record]]
seq_string = "ALEIIRLSHRLC"
discrete_label = "Met"

[[record]]
seq_string = "LRLFIFLLFSVF"
discrete_label = "Not met"

[[record]]
seq_string = "MALAVRVVVCGA"
discrete_label = "Not met"

[[record]]
seq_string = "APEWGGGDEWWG"
discrete_label = "Met"

[[record]]
seq_string = "FLSVLPLFAFFA"
discrete_label = "Met"

[[record]]
seq_string = "RGGPPPCPLLAA"
discrete_label = "Met"

[[record]]
seq_string = "VFRHFYTFLALC"
discrete_label = "Met"

[[record]]
seq_string = "FCVCLAVTCCGG"
discrete_label = "Not met"

[[record]]
seq_string = "IIPAFPFAFLAF"
discrete_label = "Met"

[[record]]
seq_string = "LLLSLLVLRFFL"
discrete_label = "Not met"

[[record]]
seq_string = "WYAGIVFTRVWM"
discrete_label = "Met"

[[record]]
seq_string = "SPTRTCTAIRTP"
discrete_label = "Met"

[[record]]
seq_string = "LLLPVFLVFSVS"
discrete_label = "Not met"

[[record]]
seq_string = "VTGYLSTLTMLC"
discrete_label = "Met"

[[record]]
seq_string = "RGSLLRWFLAAQ"
discrete_label = "Met"

[[record]]
seq_string = "AALFNYVVCFCA"
discrete_label = "Not met"

[[record]]
seq_string = "TPLLPPSPPPSR"
discrete_label = "Not met"

[[record]]
seq_string = "IIAVFRCCLRVY"
discrete_label = "Not met"

[[record]]
seq_string = "VAFFSVFYWLEC"
discrete_label = "Not met"

[[record]]
seq_string = "LFRFSRLFLFVL"
discrete_label = "Met"

[[record]]
seq_string = "GAVVYGICFCTN"
discrete_label = "Not met"

[[record]]
seq_string = "FLPPVHRCFSIF"
discrete_label = "Met"

[[record]]
seq_string = "VYVYTIRVRWSE"
discrete_label = "Not met"

[[record]]
seq_string = "GYAFPPPHRVRT"
discrete_label = "Met"

[[record]]
seq_string = "PRSLHVLSRFLP"
discrete_label = "Met"

[[record]]
seq_string = "LRALGPRIYRIS"
discrete_label = "Met"

[[record]]
seq_string = "RGAVRVAWYPVL"
discrete_label = "Met"

[[record]]
seq_string = "LQYSKALAVICG"
discrete_label = "Not met"

[[record]]
seq_string = "QRAVGLANFTIK"
discrete_label = "Met"

[[record]]
seq_string = "PLYFSVFSLLFL"
discrete_label = "Met"

[[record]]
seq_string = "KSARLYVTSFLC"
discrete_label = "Met"

[[record]]
seq_string = "AWVLISNRRRIM"
discrete_label = "Met"

[[record]]
seq_string = "GRLRLGVLCGGV"
discrete_label = "Met"

[[record]]
seq_string = "GPPVPLSPPLSP"
discrete_label = "Not met"

[[record]]
seq_string = "PPPLPPPSPSRP"
discrete_label = "Met"

[[record]]
seq_string = "LFLVFIGLFFLT"
discrete_label = "Not met"

[[record]]
seq_string = "VFFRVLVAGCRQ"
discrete_label = "Met"

[[record]]
seq_string = "SLLFLVLFFPLV"
discrete_label = "Met"

[[record]]
seq_string = "VPPLPPPGPPTF"
discrete_label = "Met"

[[record]]
seq_string = "FGVVRVSIPVGV"
discrete_label = "Not met"

[[record]]
seq_string = "VFFPCRLLPLLF"
discrete_label = "Met"

[[record]]
seq_string = "GGGWCEMLIVVG"
discrete_label = "Not met"

[[record]]
seq_string = "FLAFSYIRLLFF"
discrete_label = "Met"

[[record]]
seq_string = "TCVVCSCVLQCV"
discrete_label = "Not met"

[[record]]
seq_string = "IKERRKVSMKVY"
discrete_label = "Met"

[[record]]
seq_string = "LYLEAYFCIFHF"
discrete_label = "Not met"

[[record]]
seq_string = "PGSIGVVIAVRS"
discrete_label = "Not met"

[[record]]
seq_string = "WLGCVLIGWHVL"
discrete_label = "Not met"

[[record]]
seq_string = "LGVLVVCFNATY"
discrete_label = "Not met"

[[record]]
seq_string = "RWRRWCVVLFVV"
discrete_label = "Not met"

[[record]]
seq_string = "FCLFMFVPLLPL"
discrete_label = "Met"

[[record]]
seq_string = "GRVFSSFFLYIS"
discrete_label = "Not met"

[[record]]
seq_string = "CSPSCNIVRLVS"
discrete_label = "Met"

[[record]]
seq_string = "SPGFVLLAVLVI"
discrete_label = "Not met"

[[record]]
seq_string = "SVQICGFWLILG"
discrete_label = "Met"

[[record]]
seq_string = "FLIFVVIGGVGL"
discrete_label = "Not met"

[[record]]
seq_string = "LLCSPPPLTVPA"
discrete_label = "Not met"

[[record]]
seq_string = "SLVIRLNIRLIL"
discrete_label = "Met"

[[record]]
seq_string = "CLVISVLFGVVA"
discrete_label = "Not met"

[[record]]
seq_string = "IFFFQFLWFCLS"
discrete_label = "Not met"

[[record]]
seq_string = "VFFFVSFFAFSS"
discrete_label = "Not met"

[[record]]
seq_string = "DRQMRCVHIHYL"
discrete_label = "Met"

[[record]]
seq_string = "IRFFLIVFCFLR"
discrete_label = "Not met"

[[record]]
seq_string = "LCLLHCSICISF"
discrete_label = "Not met"

[[record]]
seq_string = "IVFLPVLLWFSV"
discrete_label = "Not met"

[[record]]
seq_string = "KYCPCIPLLIAL"
discrete_label = "Not met"

[[record]]
seq_string = "AASRVIYLLNLF"
discrete_label = "Met"

[[record]]
seq_string = "RPPPYSPRLFHN"
discrete_label = "Met"

[[record]]
seq_string = "FVVFLLFFMLYH"
discrete_label = "Not met"

[[record]]
seq_string = "LWGVGRQRNIAS"
discrete_label = "Met"

[[record]]
seq_string = "DKKPMKKILLCI"
discrete_label = "Met"

[[record]]
seq_string = "HCSRMIIIFLFL"
discrete_label = "Not met"


The reported measurements were obtained from the supplement of paper PMC10724198.
